Readings of Efficacy for the listed molecules
- Test system: Fusarium nivale (var. majus)
- Experiment Notes: In vivo preventive test on Fusarium nivale (wheat)
- Stated Conditions: 500 ppm of active ingredient, evaluated 5 days after inoculation
Answer with a number only, understood to be in %.

Enquiry: Given the entry `Cc1cc(Br)ccc1C(=O)C(C)(C)NC(=O)c1c(C(F)F)nn(C)c1F` , report its measured Efficacy.
Return: 100

Enquiry: Given the entry `Cn1nc(C(F)F)c(C(=O)NCCc2ccc(Cl)cc2Cl)c1Cl` , report its measured Efficacy.
Return: 100

Enquiry: Given the entry CC(Cc1c(Cl)cccc1Cl)N(C(=O)c1c(C(F)F)nn(C)c1F)C1CC1 (centres unmarked) , report its measured Efficacy.
Return: 100

Enquiry: Given the entry `Cn1nc(C(F)F)c(C(=O)N(C[Si](C)(C)c2cc(Cl)cc(Cl)c2)C2CC2)c1F` , report its measured Efficacy.
Return: 83

Enquiry: Given the entry Cn1nc(C(F)F)c(C(=O)N(C2CC2)C2CCCC2c2ccc(Cl)cc2Cl)c1F (centres unmarked) , report its measured Efficacy.
Return: 100

---
Enquiry: Given the entry CC(Cc1c(F)cccc1Cl)N(C(=O)c1c(C(F)F)nn(C)c1F)C1CC1 (centres unmarked) , report its measured Efficacy.
Return: 100

Enquiry: Given the entry `Cn1nc(C(F)F)c(C(=O)N(C[Si](C)(C)c2ccccc2Cl)C2CC2)c1F` , report its measured Efficacy.
Return: 83

Enquiry: Given the entry CC(Cc1ccc(Oc2ccccc2)cc1)NC(=O)c1c(C(F)F)nn(C)c1F (centres unmarked) , report its measured Efficacy.
Return: 100

* * *

Readings of logP for the listed compounds
- Experiment Notes: logP by HPLC on reversed-phase column (C 18), EEC Directive 79/831 Annex V.A8
- Format: physicochemical
- Protocol: In table 1, the logP values were determined in accordance with EEC Directive 79/831 Annex V.A8 by HPLC (High Performance Liquid Chromatography) on a reversed-phase column (C 18), using the method described below: Temperature: 40° C.; […]

Enquiry: Given the entry Cn1nc(C(F)F)c(C(=O)NC2CC2c2ccc(Cl)cc2)c1F (centres unmarked) [Example 224] , report its measured logP.
Return: 2.61

Enquiry: Given the entry Cn1nc(C(F)F)c(C(=O)N(CCc2ccncc2)C2CCCC2)c1Cl [Example 204] , report its measured logP.
Return: 1.32

Enquiry: Given the entry Cn1nc(C(F)F)c(C(=O)NCCc2ccc(Cl)cc2Cl)c1F [Example 65] , report its measured logP.
Return: 3.09

Enquiry: Given the entry CC(Cc1ccc(Cl)cc1)N(C(=O)c1c(C(F)F)nn(C)c1F)C1CC1 (centres unmarked) [Example 55] , report its measured logP.
Return: 3.73

---
Enquiry: Given the entry Cn1nc(C(F)F)c(C(=O)NC[Si](C)(C)c2ccccc2)c1F [Example 228] , report its measured logP.
Return: 3.13

* * *

Readings of Efficacy for the listed molecules
- Tested on: Fusarium nivale (var. majus)
- Experiment Notes: In vivo preventive test on Fusarium nivale (wheat)
- Stated Conditions: 500 ppm of active ingredient, evaluated 5 days after inoculation
Answer with a number only, understood to be in %.

Solved entries (count: 3):
Enquiry: Given the entry COC(c1ccc(Cl)cc1Cl)C(C)NC(=O)c1c(C(F)F)nn(C)c1F (centres unmarked) [Example 73] , report its measured Efficacy.
Return: 88

Enquiry: Given the entry Cn1nc(C(F)F)c(C(=O)N(CC(F)(F)c2ccccc2Cl)C2CC2)c1F [Example 44] , report its measured Efficacy.
Return: 100

Enquiry: Given the entry Cn1nc(C(F)F)c(C(=O)N(C[Si](C)(C)c2cccc(Cl)c2)C2CC2)c1F [Example 235] , report its measured Efficacy.
Return: 100

---
Enquiry: Given the entry Cn1nc(C(F)F)c(C(=O)N(C2CC2)C2CCCC2c2ccccc2Cl)c1F (centres unmarked) [Example 210] , report its measured Efficacy.
Return: 86

Enquiry: Given the entry CC(Cc1ncc(C(F)(F)F)cc1Cl)N(C(=O)c1c(C(F)F)nn(C)c1Cl)C1CC1 (centres unmarked) [Example 189] , report its measured Efficacy.
Return: 100

Enquiry: Given the entry CC(Cc1ncc(C(F)(F)F)cc1Cl)NC(=O)c1c(C(F)F)nn(C)c1F (centres unmarked) [Example 190] , report its measured Efficacy.
Return: 88

Enquiry: Given the entry Cn1nc(C(F)F)c(C(=O)NCC(C)(C)c2ccc(Cl)cc2Cl)c1Cl [Example 88] , report its measured Efficacy.
Return: 88

Enquiry: Given the entry CC(Cc1ccc(Cl)cc1)N(C(=O)c1c(C(F)F)nn(C)c1F)C1CC1 (centres unmarked) [Example 55] , report its measured Efficacy.
Return: 100

Enquiry: Given the entry Cn1nc(C(F)F)c(C(=O)NC(C)(C)C(=O)c2ncc(C(F)(F)F)cc2Cl)c1F [Example 194] , report its measured Efficacy.
Return: 100

Enquiry: Given the entry Cn1nc(C(F)F)c(C(=O)NC(C)(C)C(=O)c2ccc3ccccc3c2)c1F [Example 160] , report its measured Efficacy.
Return: 83

Enquiry: Given the entry Cn1nc(C(F)F)c(C(=O)N(CC(F)(F)c2ccc(Cl)cc2Cl)C2CC2)c1F [Example 86] , report its measured Efficacy.
Return: 93

* * *

- Tested on: Fusarium graminearum
- Experiment Notes: microbe, parasite or virus in culture
- Assay type: cell-based
- Stated Conditions: 50 μM
Measure: % Inhibition of fungal growth at 50 μM (%)
Answer with a number only, understood to be in %.

Enquiry: Return % Inhibition of fungal growth at 50 μM measured with Fusarium graminearum given this molecule: Cn1nc(C(F)F)c(C(=O)NC[Si](C)(C)c2ccc(Cl)cc2Cl)c1F [Example 240]
Return: 84

Enquiry: Return % Inhibition of fungal growth at 50 μM measured with Fusarium graminearum given this molecule: Cn1nc(C(F)F)c(C(=O)NCCc2ccccc2Cl)c1Cl [Example 34]
Return: 84

Enquiry: Return % Inhibition of fungal growth at 50 μM measured with Fusarium graminearum given this molecule: CC(Cc1cccc(Oc2ccccc2)c1)NC(=O)c1c(C(F)F)nn(C)c1Cl (stereo not shown) [Example 147]
Return: 77

---
Enquiry: Return % Inhibition of fungal growth at 50 μM measured with Fusarium graminearum given this molecule: CC(Cc1ccc(Cl)cc1Cl)NC(=O)c1c(C(F)F)nn(C)c1Cl (stereo not shown) [Example 68]
Return: 100

Enquiry: Return % Inhibition of fungal growth at 50 μM measured with Fusarium graminearum given this molecule: CC(Cc1cc(Cl)cc(Cl)c1)NC(=O)c1c(C(F)F)nn(C)c1F (stereo not shown) [Example 102]
Return: 100

Enquiry: Return % Inhibition of fungal growth at 50 μM measured with Fusarium graminearum given this molecule: Cn1nc(C(F)F)c(C(=O)NC2CC2c2ccccc2C(F)(F)F)c1F (stereo not shown) [Example 225]
Return: 83

Enquiry: Return % Inhibition of fungal growth at 50 μM measured with Fusarium graminearum given this molecule: Cn1nc(C(F)F)c(C(=O)NCCc2ccsc2Br)c1Cl [Example 165]
Return: 81

Enquiry: Return % Inhibition of fungal growth at 50 μM measured with Fusarium graminearum given this molecule: Cn1nc(C(F)F)c(C(=O)N(C[Si](C)(C)c2ccsc2)C2CC2)c1Cl [Example 247]
Return: 100

* * *

- Test system: Fusarium graminearum
- Experiment Notes: microbe, parasite or virus in culture
- Assay type: cell-based
- Stated Conditions: 50 μM
Measure: % Inhibition of fungal growth at 50 μM (%)
Answer with a number only, understood to be in %.

Enquiry: Given the entry Cn1nc(C(F)F)c(C(=O)NC[Si](C)(C)c2ccccc2)c1F [Example 228] , report its measured % Inhibition of fungal growth at 50 μM.
Return: 93

Enquiry: Given the entry Cn1nc(C(F)F)c(C(=O)NC2CCCCC2c2ccccc2)c1F (stereo not shown) [Example 212] , report its measured % Inhibition of fungal growth at 50 μM.
Return: 99

Enquiry: Given the entry CC(CN(C(=S)c1c(C(F)F)nn(C)c1F)C1CC1)c1ccccc1 (stereo not shown) [Example 15] , report its measured % Inhibition of fungal growth at 50 μM.
Return: 83

Enquiry: Given the entry Cn1nc(C(F)F)c(C(=O)NCCc2ccc(Cl)cc2Cl)c1Cl [Example 66] , report its measured % Inhibition of fungal growth at 50 μM.
Return: 100

Enquiry: Given the entry CC(Cc1cccc(Oc2ccccc2)c1)NC(=O)c1c(C(F)F)nn(C)c1F (stereo not shown) [Example 146] , report its measured % Inhibition of fungal growth at 50 μM.
Return: 83

Enquiry: Given the entry Cn1nc(C(F)F)c(C(=O)N(C2CC2)C2CCCCC2c2ccccc2Cl)c1F (stereo not shown) [Example 216] , report its measured % Inhibition of fungal growth at 50 μM.
Return: 84

Enquiry: Given the entry CC(Cc1c(F)cccc1F)N(C(=O)c1c(C(F)F)nn(C)c1F)C1CC1 (stereo not shown) [Example 26] , report its measured % Inhibition of fungal growth at 50 μM.
Return: 99

Enquiry: Given the entry CC(CNC(=O)c1c(C(F)F)nn(C)c1Cl)c1cc(Cl)ccc1Cl (stereo not shown) [Example 98] , report its measured % Inhibition of fungal growth at 50 μM.
Return: 95

Enquiry: Given the entry CC(Cc1cc(Cl)ccc1Cl)NC(=O)c1c(C(F)F)nn(C)c1Cl (stereo not shown) [Example 93] , report its measured % Inhibition of fungal growth at 50 μM.
Return: 100

Enquiry: Given the entry Cn1nc(C(F)F)c(C(=O)NCCc2csc3c2CCCC3)c1Cl [Example 169] , report its measured % Inhibition of fungal growth at 50 μM.
Return: 75

---
Enquiry: Given the entry CC(CNC(=O)c1c(C(F)F)nn(C)c1F)c1ccc(Cl)cc1Cl (stereo not shown) [Example 84] , report its measured % Inhibition of fungal growth at 50 μM.
Return: 100
